Values were extracted from paper PMC11047093.

# TARGET_UNDER_TEST: T1, His-APOBEC2 (Mus musculus, UniProt Q9WV35 1-224)
# T1 sequence: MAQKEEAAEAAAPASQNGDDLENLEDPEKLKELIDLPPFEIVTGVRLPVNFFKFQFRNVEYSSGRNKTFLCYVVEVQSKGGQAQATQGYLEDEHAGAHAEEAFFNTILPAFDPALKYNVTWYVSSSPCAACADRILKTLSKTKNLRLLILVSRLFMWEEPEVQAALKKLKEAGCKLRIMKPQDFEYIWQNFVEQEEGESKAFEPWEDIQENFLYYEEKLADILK
# METHOD: MST
ASSAY_METRIC: Kd
The reply should consist of the numeric value with the unit placed after it.

# input Tell me Kd reported for GGCGGCGCGGCCCCGCCCCCTCCTCCGGC (ssDNA) [SP/KLF motif]
# output 926 nM
